Numbers sourced from paper PMC5540273.

System: HIPK4
Settings: concentration: 1 μM,replicates: in singlicate; n = 1;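 further: KINOMEscan kinase panel screen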
Each entry below carries its reported %Inh.
observable: %Inh (%)

>>> observed_measurement("O=C(NCC1CC1)c1ccc(-c2cc(C(=O)NC3CC3)ccc2F)cc1 [GW810445]")
12
>>> observed_measurement("CC(C)S(=O)(=O)N1CCN(Cc2ccc3c(c2)nc(NC(=O)c2ccsc2)n3C[C@H](O)c2ccccc2)CC1 [GW635815]")
0
>>> observed_measurement("COc1cc2ncn(-c3cc(OCC4CCCCC4)c(C(N)=O)s3)c2cc1OC [GSK204559]")
68
>>> observed_measurement("O=C(Nc1cccc(Oc2ccc3nccn3n2)c1)Nc1cccc(C(F)(F)F)c1")
17
>>> observed_measurement("Cl.c1ccc(Oc2ccc(Nc3ccnc4cc(-c5ccc(CN6CCNCC6)o5)ccc34)cc2)nc1 [GW567142]")
10
>>> observed_measurement("O=c1[nH]cc(-c2ccc(O)cc2)c2sc(-c3ccncc3)cc12 [GSK1033723]")
22
>>> observed_measurement("Cc1ccc2c(-c3ccnc(Nc4ccc(C(F)(F)F)cc4)n3)cnn2n1 [GW819776]")
43
>>> observed_measurement("O=C(NOCC1CC1)c1cc(Br)c(F)c(F)c1Nc1ccc(I)cc1Cl")
0
>>> observed_measurement("CC(C)c1nc(-c2cccc(NS(=O)(=O)c3ccccc3)c2)c(-c2ccnc(Nc3ccc4c(c3)CN(C)CC4)n2)s1 [GSK1649598]")
93.6
>>> observed_measurement("CSc1nccc(-c2c(-c3ccc(F)cc3)ncn2CCCN2CCOCC2)n1.Cl [SB-217146]")
0
>>> observed_measurement("COC(=O)c1cccc(NC(=O)NC2CCN(c3ccnc(Nc4cc(OC)c(OC)c(OC)c4)n3)C2)c1 (centres unmarked) [GSK1379767]")
0
>>> observed_measurement("COc1cccc(OC)c1C(=O)Nc1cccc(-c2nn3ccccc3c2-c2ccnc(Nc3cccc(F)c3)n2)c1 [GSK361065]")
84
>>> observed_measurement("C[C@@H]1CNc2c(sc3ccc4nc(-c5ccc(O)cc5)ccc4c23)C(=O)N1")
0
>>> observed_measurement("OCCn1cc(-c2cnc3nnn(Cc4ccc5ncccc5c4)c3n2)cn1")
3
>>> observed_measurement("CCN1CCN(CCCC(=O)Nc2n[nH]c3nc(-c4ccc(O)cc4)c(Br)cc23)CC1 [SB-731579]")
0
>>> observed_measurement("Cn1ccc2ncnc(Oc3ccc(NC(=O)Nc4cccc(C(F)(F)F)c4)c(F)c3)c21")
94.3
>>> observed_measurement("COC(=O)c1cccc(NC(=O)NC2CCN(c3ccnc(NCc4ccc(F)cc4)n3)CC2)c1 [GSK1379860]")
0

----------
System: TNNI3K
Details: concentration: 1 μM,replicates: in singlicate; n = 1
Hi! Could you tag entries with %Inh below 7% as Condition met, and those at or above as Condition not met? Much appreciated.

>>> answer_label("Cn1ccc2ncnc(Oc3ccc(NC(=O)Nc4cncc(C(F)(F)F)c4)c(Cl)c3)c21")
"Condition not met"
>>> answer_label("O=C(NCC1CC1)c1ccc(-c2cc(C(=O)NC3CC3)ccc2F)cc1")
"Condition met"
>>> answer_label("CN1CCN(CCNc2nc3cc(Oc4ccc(NC(=O)Nc5cc(C(F)(F)F)ccc5F)cc4)ccc3[nH]2)CC1.Cl.Cl")
"Condition met"
>>> answer_label("CC(C(=O)NC1CCN(c2ccnc(Nc3ccc(F)cc3)n2)C1)c1ccc(Cl)cc1 (stereo not shown)")
"Condition met"
>>> answer_label("CC(=O)c1c(-c2ccncc2)[nH]c(-c2ccncc2)c1C")
"Condition met"
>>> answer_label("C[C@@H]1CNc2c(sc3ccc4nc(-c5ccncc5)ccc4c23)C(=O)N1")
"Condition met"
>>> answer_label("O=c1[nH]cc(-c2ccc(O)cc2)c2sc(-c3ccncc3)cc12")
"Condition not met"
>>> answer_label("Cc1ccc2c(-c3ccnc(Nc4ccc(C(F)(F)F)cc4)n3)cnn2n1")
"Condition met"
>>> answer_label("COC(=O)Nc1nc2cc(Oc3ccc(NC(=O)Nc4cc(C(F)(F)F)ccc4Cl)cc3)ccc2[nH]1.Cl")
"Condition not met"
>>> answer_label("CN1CCN(CCCNc2nccc(-c3c(-c4ccc(F)cc4)nn4cc(C(N)=O)ccc34)n2)CC1")
"Condition met"
>>> answer_label("Cn1ccc2ncnc(Oc3ccc(NC(=O)Nc4cccc(C(F)(F)F)c4)c(Cl)c3)c21")
"Condition not met"
>>> answer_label("CN(c1ccccc1CNc1nc(Nc2ccc3c(c2)CC(=O)N3)ncc1C(F)(F)F)S(C)(=O)=O")
"Condition met"
>>> answer_label("CCn1c(-c2nonc2N)nc2cncc(CNC3CCNCC3)c21.Cl")
"Condition met"
>>> answer_label("COc1cccc(C2=C(Nc3cccc(Cl)c3)C(=O)NC2=O)c1")
"Condition not met"
>>> answer_label("O=C(Nc1cccc(C(F)(F)F)c1)c1cccc(Oc2ccc3nccn3n2)c1")
"Condition not met"
>>> answer_label("OCCn1cc(-c2cnc3nnn(Cc4ccc5ncccc5c4)c3n2)cn1")
"Condition met"
>>> answer_label("COc1cccc(CNC(=O)NC2CCN(c3ccnc(Nc4cc(OC)c(OC)c(OC)c4)n3)C2)c1 (stereo not shown)")
"Condition met"
>>> answer_label("COc1cc2nccc(Nc3ccc(Oc4ccccc4)cc3)c2cc1OC.Cl")
"Condition met"
>>> answer_label("O=C1NCCc2[nH]c(-c3ccncc3)cc21")
"Condition met"
>>> answer_label("N#Cc1cccc(C(=O)NC2CCN(c3ccnc(Nc4ccc(F)cc4)n3)C2)c1 (stereo not shown)")
"Condition met"

----------
Each entry below carries its reported %Inh.
Test system: YSK1
Construct: gene STK25
Conditions: concentration: 1 μM,replicates: in singlicate; n = 1
observable: %Inh (%)

>>> observed_measurement("O=C(Nc1ccccc1)c1cccc(Oc2ccc3nccn3n2)c1")
0
>>> observed_measurement("NC(=O)Nc1sc(-c2ccc(F)cc2)cc1C(N)=O")
0
>>> observed_measurement("COc1cc2ncn(-c3cc(OCC4CCCCC4)c(C(N)=O)s3)c2cc1OC")
24
>>> observed_measurement("CCn1c(-c2nonc2N)nc2cncc(CNC3CCNCC3)c21.Cl")
0
>>> observed_measurement("C[C@@H]1CNc2c(sc3ccc4nc(-c5ccc(O)cc5)ccc4c23)C(=O)N1")
0
>>> observed_measurement("C[C@@H]1CNc2c(sc3ccc4nc(-c5ccncc5)ccc4c23)C(=O)N1")
0
>>> observed_measurement("CN(c1ccc2c(c1)nc(NCc1ccc(F)cc1)n2C)c1ccnc(Nc2ccc(CS(C)(=O)=O)cc2)n1.Cl")
4
>>> observed_measurement("Cn1ccc2ncnc(Oc3ccc(NC(=O)Nc4cncc(C(F)(F)F)c4)c(Cl)c3)c21")
0

----------
Tested on: ANKK1
Settings: concentration: 1 μM,replicates: in singlicate; n = 1
observable: %Inh (%)

>>> observed_measurement("c1ccc(Oc2ccc(Nc3ccnc4ccc(-c5ccccn5)cc34)cc2)cc1")
0
>>> observed_measurement("COC(=O)c1cccc(NC(=O)NC2CCN(c3ccnc(NCc4ccc(F)cc4)n3)CC2)c1")
0
>>> observed_measurement("O=c1[nH]cc(-c2ccc(O)cc2)c2sc(-c3ccncc3)cc12")
10
>>> observed_measurement("C[C@@H]1CNc2c(sc3ccc4nc(-c5ccc(O)cc5)ccc4c23)C(=O)N1")
0
>>> observed_measurement("CC(C(=O)NC1CCN(c2ccnc(Nc3ccc(F)cc3)n2)C1)c1ccc(Cl)cc1 (stereo not shown)")
4
>>> observed_measurement("COC(=O)c1cccc(NC(=O)NC2CCN(c3ccnc(Nc4cc(OC)c(OC)c(OC)c4)n3)C2)c1 (stereo not shown)")
20
>>> observed_measurement("COc1ccc(Nc2nccc(N3CCC(NC(=O)c4cccc(C#N)c4)C3)n2)cc1 (stereo not shown)")
0

----------
Each entry below carries its reported %Inh.
Test system: ERK8
Construct: gene MAPK15
Conditions: concentration: 1 μM,replicates: in singlicate; n = 1
observable: %Inh (%)

>>> observed_measurement("C[C@@H](Oc1cc(-n2cnc3cc(-c4cnn(C)c4)ccc32)sc1C(N)=O)c1ccccc1Cl")
64
>>> observed_measurement("Cc1cccc(-c2nc(Nc3ccncc3)c3sccc3n2)n1")
2
>>> observed_measurement("Cn1ccc2ncnc(Oc3ccc(NC(=O)Nc4cncc(C(F)(F)F)c4)c(Cl)c3)c21")
0
>>> observed_measurement("Cc1cccc2c(-c3ccncc3)c(-c3ccc(F)cc3)nn12.Cl")
0
>>> observed_measurement("COc1cc2c(Nc3ccc(NC(=O)c4ccccc4)cc3)ncnc2cc1OCCCN1CCOCC1")
0

----------
Each entry below carries its reported %Inh.
Test system: PHKG1
Settings: concentration: 1 μM,replicates: in singlicate; n = 1
observable: %Inh

>>> observed_measurement("COc1cc2c(Nc3ccc(NC(=O)c4ccccc4)cc3)ncnc2cc1OCCCN1CCOCC1")
"0%"
>>> observed_measurement("CC(C)c1nc(-c2cccc(NS(=O)(=O)c3ccccc3)c2)c(-c2ccnc(Nc3ccc4c(c3)CN(C)CC4)n2)s1")
"0%"
>>> observed_measurement("COc1cc(Nc2nccc(N3CCC(NC(=O)c4cccc(C#N)c4)C3)n2)cc(OC)c1OC (centres unmarked)")
"0%"
>>> observed_measurement("Cl.Cl.NC[C@H](CC1CCCCC1)NC(=O)c1ccc(-c2ccnc3[nH]ccc23)s1")
"36%"
>>> observed_measurement("CC(=O)c1c(-c2ccncc2)[nH]c(-c2ccncc2)c1C")
"0%"
>>> observed_measurement("O=C(Nc1cccc(C(F)(F)F)c1)c1cccc(Oc2ccc3nccn3n2)c1")
"33%"
>>> observed_measurement("OCCn1cc(-c2cnc3nnn(Cc4ccc5ncccc5c4)c3n2)cn1")
"5%"
>>> observed_measurement("C[C@@H]1CCN(C(=O)N2CCCC2)C[C@@H]1N(C)c1ncnc2[nH]ccc12")
"0%"
>>> observed_measurement("CS(=O)(=O)c1cccc(CNc2nc(Nc3ccc4c(c3)[C@@H]3C[C@@H]4CNC3=O)ncc2C(F)(F)F)c1")
"0%"
>>> observed_measurement("Nc1nccc(-c2ccc3c(N)n[nH]c3c2)n1")
"5%"
>>> observed_measurement("CC(C(=O)NC1CCN(c2ccnc(Nc3ccc(F)cc3)n2)C1)c1ccc(Cl)cc1 (centres unmarked)")
"0%"
>>> observed_measurement("Cc1ccn2nc(-c3ccc(F)cc3)c(-c3ccncc3)c2c1.Cl")
"0%"
>>> observed_measurement("Cn1ccc2ncnc(Oc3ccc(NC(=O)Nc4cc(C(C)(C)C)on4)c(Cl)c3)c21")
"3%"
>>> observed_measurement("Cc1nnc(-c2ccc3occ(-c4ccc(S(C)=O)cc4)c3n2)o1 (centres unmarked)")
"0%"
>>> observed_measurement("C[C@@H](Oc1cc(-n2cnc3cc(-c4ccncc4)ccc32)sc1C(N)=O)c1ccccc1Cl")
"0%"
>>> observed_measurement("O=C(NCC1CC1)c1ccc(-c2cc(C(=O)NC3CC3)ccc2F)cc1")
"0%"
>>> observed_measurement("C[C@@H]1CNc2c(sc3ccc4nc(-c5ccc(O)cc5)ccc4c23)C(=O)N1")
"31%"
>>> observed_measurement("CN1CCN(CCCNc2nccc(-c3c(-c4ccc(F)cc4)nn4cc(C(N)=O)ccc34)n2)CC1")
"14%"
>>> observed_measurement("CCCC(=O)Nc1n[nH]c2ncccc12")
"0%"
>>> observed_measurement("COC(=O)c1cccc(NC(=O)NC2CCN(c3ccnc(NCc4ccc(F)cc4)n3)CC2)c1")
"0%"
>>> observed_measurement("CSc1nccc(-c2c(-c3ccc(F)cc3)ncn2CCCN2CCOCC2)n1.Cl")
"11%"
>>> observed_measurement("Cn1ccc2ncnc(Oc3ccc(NC(=O)Nc4cccc(C(F)(F)F)c4)c(F)c3)c21")
"18%"
>>> observed_measurement("Cc1cccc2c(-c3ccncc3)c(-c3ccc(F)cc3)nn12.Cl")
"0%"
>>> observed_measurement("CCNCC(Cc1ccccc1)NC(=O)c1cc(Br)c(-c2ccnc3[nH]ccc23)s1.Cl.Cl (centres unmarked)")
"27%"
>>> observed_measurement("Cn1cc(-c2cccc3c(N)c(C(N)=O)nnc23)cn1")
"10%"
>>> observed_measurement("Cn1ccc2ncnc(Oc3ccc(NC(=O)Nc4cncc(C(F)(F)F)c4)c(Cl)c3)c21")
"0%"
>>> observed_measurement("O=C(Nc1cccc(Oc2ccc3nccn3n2)c1)Nc1cccc(C(F)(F)F)c1")
"14%"
>>> observed_measurement("Cc1ccc2c(-c3ccnc(Nc4ccc(C(F)(F)F)cc4)n3)cnn2n1")
"18%"
>>> observed_measurement("COc1cccc(CNC(=O)NC2CCN(c3ccnc(Nc4cc(OC)c(OC)c(OC)c4)n3)C2)c1 (centres unmarked)")
"15%"
>>> observed_measurement("FC(F)(F)c1cc(Br)cc(Nc2nccc(-c3cnn4ncccc34)n2)c1")
"16%"
>>> observed_measurement("Cc1ccc(C(=O)Nc2ccc(Oc3ccc4nc(NC(=O)C5CC5)cn4c3)c(F)c2)c(=O)n1-c1ccccc1")
"26%"
>>> observed_measurement("O=C(Nc1ccc(Oc2ccc3nc(NC(=O)C4CC4)cn3n2)c(F)c1)c1cccn(-c2ccccc2)c1=O")
"61%"
>>> observed_measurement("CCOC(=O)N1CCC(n2cnc(-c3ccc(F)cc3)c2-c2ccnc(N)n2)CC1")
"0%"
>>> observed_measurement("CN(c1ccccc1CNc1nc(Nc2ccc3c(c2)CC(=O)N3)ncc1C(F)(F)F)S(C)(=O)=O")
"35%"
>>> observed_measurement("C[C@@H]1CNc2c(sc3ccc4nc(-c5ccncc5)ccc4c23)C(=O)N1")
"39%"
